tested on: pooled human IgG (human IgG1,2,3 and 4)
property name: Enzyme Activity Endpoint Assay (purified): scIgG (ng/µL)
// return numeric value only (unit: ng/µL, not printed)

Guide cases for Enzyme Activity Endpoint Assay (purified): scIgG, answers given:
protein | value units | numeric value
PRT-352 (protein) MSQTEDSESLQRLRDIEDFQAEKKMQNVVYTKWLDGVDVKDHDFRKIVDGNSAYYATPLLNGRGFYDINKDFNRDSDKCAAAVAANMFHYWLDINRDNVDRFLRQNPEKHGIIELPDGQLKLSDFLNTYESDHGYRDKSKLFDFISENFNGPVWTDKLLDNYINGYAYNSKYGRTIEDPTKNTSKINFFKEVFNEKILTNNHSIRNQNEFSVLLIEALYTGKAIGLSYGPAGLRHGLGHIISVWGADLDADGNVVAIYVTDSDDKKLTIGDERVGLKRYKISTDDENRLRLTAYEETHNTGGQIRGLWTLDTGKYAWADYFDKTEQTGTDQAEQ | ng/µL | 599
PRT-499 (protein) MVTSVWTKGVTPPADFRKIVDGNIAYYHAPYVANQGWYDITKTFNGKDDLLCGAATAGNMLHWWFDQNKEYIEAYLKKHPEKQKIMFGDQELLDVRKAINTKGSQKNSELFNYFRDKAFPNLSARRLGVMPDLVLDMFINGYYLNVTKTQTTDVNRTYQEKDKRGGIFDAVFTRGDQSKLLTSRHDLKNKGLKEISDLIKQELTEGKALGLSHTYANVRINHVINLWGADFDSDGNLKAIYVTDSDSNASIGMKKYFVGVNSAGKVAISAKEIKEDNIGAQVLGLFTLSTGQDIWNQTNLEHHHHHH | ng/µL | 45

Inquiry: Consider the protein shown here: PRT-511 (protein) MITSVWTKGVTPPAKFRKIVDGNIAYYHAPYVANQGWYDITKTFNGKDDLLCGAATAGNMLHWWFDQNKEEIEAYLKKHPEKQKIMFGDQELLDVRKVINTKDSQTNSALFNYFKDKAFPNLSARRLGVMPDLVLDMFINGYYLNVYKTQTTDVNRTYQTKDRRGGIFDAVFTRGDQSKLLTERHDLKNKTLKEISDLIKQELTEGKALGLSHTYANVRINHVINLWGADFDSNGNLEAIYVTDSDSNASIGMKKYFVGVNSAGKVAISAKEIKEDNIGAQVLGLFTLSTGQDIWNQTNLEHHHHHH What is its recorded Enzyme Activity Endpoint Assay (purified): scIgG?
Reply text: 0

Inquiry: Need Enzyme Activity Endpoint Assay (purified): scIgG, item PRT-365 (protein) MSQTEDSESLQRLRDIEDFQAEKKKQNVVYTKWLDGVDVKDHDFRKIVDGNEAYYATPLLNGRGFYDINKDFNRDSDKCAAAVAANMFHYWLDRNRDNVDRFLRQNPEKHGIIELPDGQLKLSDFLNTYESDDGYRDKSKLFDFISENFNGPVWTDKLLDNYINGYAYNYKYGRLIEDPTKNTSKINFFKEVFNEKILTNNHSIRNQNELSVLLSEALYTGKAIGLSYGPAGTRHSLGHIISVWGADLDADGNVVAIYVTDSDDKKLTIGDERVGLKRYKISTDDEGRLRLTAYEETHNTGGQIRGLWTLDTGKQAWADYFDKTEQTGTDQAEQ
Reply text: 312
